test system: Haemonchus contortus; experiment: Anthelmintic activity against benzimidazole-resistant Haemonchus contortus isolate by larva development assay; assay type: functional
Measurement Type: EC100

> print(dat)
                                   compound      result
1  CC(C#N)(COc1ccccc1Cl)NC(=O)c1ccc(C(F)(F)F)cc1F (stereo not given)    0.32 ppm
2  CC(C#N)(COc1c(F)cc(F)cc1F)NC(=O)c1ccc(OC(F)(F)F)cc1 (stereo not given)     >10 ppm
3  CC(C#N)(COc1cc(F)c(F)cc1C(F)(F)F)NC(=O)c1ccc(OC(F)(F)F)cc1 (single isomer, unassigned; (-))  0.0032 ppm
4  CC(C#N)(COc1cc(Cl)ccc1Cl)NC(=O)c1ccc(OC(F)(F)F)cc1 (stereo not given)    0.01 ppm
5  CC(C#N)(COc1ccccc1Cl)NC(=O)c1ccc(C(F)(F)F)cc1 (stereo not given)   0.032 ppm
